System: HCT-116
Experiment: NCI tumour cell line growth inhibition, 48 h
Active and inactive are the calls of the source. Cut-off read from the data, not from the text of the source: active = GI50 up to about 1.1 µM and inactive = higher.
# output must be one of active, inactive

Exercise: What was the test verdict on CCC(=O)N1C(=O)OCC1C(C)C (configuration not stated) ?
Solution: inactive

Exercise: What was the test verdict on CC(O)CNC(=O)Nc1c(C(F)(F)F)cc(-c2ccccc2)[nH]c1=O (configuration not stated) ?
Solution: inactive

Exercise: What was the test verdict on c1ccc([P+](c2ccccc2)(c2ccccc2)C2c3ccccc3-c3ccccc32)cc1 ?
Solution: active

Exercise: What was the test verdict on CC(=O)O[C@H]1[C@@H](OC2CCCC2(c2ccccc2)c2ccccc2)O[N+]([O-])=C[C@@]12COCc1cc3c(cc12)OCO3 (some centres not stated) ?
Solution: inactive

Exercise: What was the test verdict on O=C(CNS(=O)(=O)Cc1ccccc1)NNc1ccccc1 ?
Solution: inactive

Exercise: What was the test verdict on O=C(Nc1ccccc1)OCCN=C1c2ccccc2CCc2ccccc21 ?
Solution: inactive

Exercise: What was the test verdict on Cc1cccc(/C(Br)=C2/OC(=O)c3ccccc32)c1 ?
Solution: inactive

Exercise: What was the test verdict on CC(=O)O/C(=C(/C#N)C(=O)O)C1C(C(=O)O)C(c2ccccc2[N+](=O)[O-])C=C(c2ccco2)N1c1ccncc1 (configuration not stated) ?
Solution: inactive

Exercise: What was the test verdict on N#CC(NC12CC3CC(CC(C3)C1)C2)c1ccccc1 (configuration not stated) ?
Solution: inactive

Exercise: What was the test verdict on CC(=O)OCC(OC(C)=O)C(OC(C)=O)C(OC(C)=O)C(/C=N\Nc1nc2ccccc2c(=O)[nH]1)=N/Nc1nc2ccccc2c(=O)[nH]1 (configuration not stated) ?
Solution: inactive

Exercise: What was the test verdict on CC(C)OC(=O)c1ccc(CCC2=CC(=O)C=CC2=O)cc1 ?
Solution: inactive

Exercise: What was the test verdict on COc1ccc(-c2nnc3c4ccccc4sn23)cc1 ?
Solution: inactive

Exercise: What was the test verdict on C/C=C\C(CC(=O)NCCC1CN(C(=O)c2ccccc2)c2ccccc21)CC(=O)OC (configuration not stated) ?
Solution: inactive

Exercise: What was the test verdict on N#CC(/C(=N\NC(N)=S)C(=O)NC1C2CC3CC(C2)CC1C3)c1ccc(Cl)cc1 (configuration not stated) ?
Solution: inactive

Exercise: What was the test verdict on CC(=O)Nc1ccc(/C=C/C(=O)N2CC(CCl)c3c2cc(N)c2ccccc32)cc1 (configuration not stated) ?
Solution: active

Exercise: What was the test verdict on COc1c(Cl)cc(S(=O)O)cc1Cl ?
Solution: inactive

Exercise: What was the test verdict on NC(=S)NNc1c([N+](=O)[O-])cnn(-c2ccccc2)c1=O ?
Solution: inactive

Exercise: What was the test verdict on COc1ccc(C[C@H]2NC(=O)/C=C/C[C@@H]([C@H](C)[C@H]3O[C@@H]3c3ccccc3)OC(=O)[C@H](CC(C)C)OC(=O)[C@H](C)CNC2=O)cc1 ?
Solution: active

Exercise: What was the test verdict on O=[N+]([O-])/C(C(Cl)=C(Cl)Cl)=C(/Cl)SCc1ccccc1 ?
Solution: inactive

Exercise: What was the test verdict on COC(=O)CN(CC(O)C(NC(C)=O)C(O)C=O)C(=O)OCc1ccccc1 (configuration not stated) ?
Solution: inactive

Exercise: What was the test verdict on COC1=C2C=[N+](C)C3C(=C2C=CC1OC)Cc1cc2c(cc13)OCO2 (configuration not stated) ?
Solution: inactive

Exercise: What was the test verdict on COC(=O)[C@@H]1c2cc3c(c(O)c2[C@@H](OC)C[C@@]1(C)O)C(=O)c1c(O)cc2c(c1C3=O)OC1O[C@@]2(C)[C@H](O)[C@@H](N(C)C)[C@@H]1O ?
Solution: active

Exercise: What was the test verdict on O=c1c2cccnc2n2n1Cc1ccccc1C2 ?
Solution: inactive

Exercise: What was the test verdict on C[C@H]1S[C@H](c2c(F)cccc2F)n2c1nc1ccccc12 ?
Solution: inactive

Exercise: What was the test verdict on COc1cc(/C=C\c2ccncc2)cc(OC)c1OC ?
Solution: inactive

Exercise: What was the test verdict on CCOP1(=O)C=C(Sc2ccc([N+](=O)[O-])cc2[N+](=O)[O-])C(C)(C)O1 (configuration not stated) ?
Solution: inactive

Exercise: What was the test verdict on COC(=O)C(=O)C1(CCC(C)=O)c2ccccc2-c2ccccc21 ?
Solution: inactive

Exercise: What was the test verdict on CN1[C@@H]2CCCC[C@H]2N(C)P1(=O)C(O)/C=C/c1ccccc1 (some centres not stated) ?
Solution: inactive

Exercise: What was the test verdict on CC(C)(C)c1cc(C(C)(C)C)c(SC2OC(CO)C(O)C(O)C2O)c(O)c1O (configuration not stated) ?
Solution: inactive

Exercise: What was the test verdict on Cc1nnc2sc(N/N=C/c3ccccc3)nn12 ?
Solution: inactive

Exercise: What was the test verdict on CC(=O)/C(C)=N/NC(=O)c1ccccc1O ?
Solution: inactive

Exercise: What was the test verdict on CCN(CC)CCCNc1ccc([N+](=O)[O-])c2nc3ccccc3c(N)c12 ?
Solution: active
